All values here come from patent US20240400718A1.

# Measured on: S#084: VL-L2-VH CAR-T
# Assay details: flow cytometry on CAR-T cells; PE-labeled secondary antibody; PE-positive cells / total cells
Attribute measured: Reactivity (%)
Report the figure in % without appending any unit label.

Binder	Unit info	Reactivity (%)
4B9-B11 (antibody, V domains shown) VH: QMQLKESGPGLVQPSETLSLTCTVSGFSLTSYSVSWVRQPSGKGPEWMGRMYYDGDTAYNSALKSRLSISRDTSKNQVFLKMNSLQTDDTGTYYCTRSIGAEDYWGQGVMVTVSS VL: TSYELIQPPSASVTLGNTVSLTCVGDELPKRYAYWYQQKPDQSIVRVIYEDSKRPSGISDRFSGSSSGTTATLTIRDAQNEDEADYYCHSTYSDDKLRIFGGGTKLTVLG	%	0.1
3E7-C1 (antibody, V domains shown) VH: QVQMKESGPGLVQPSETLSLTCTVSGFSLTSYGVSWVRQPSGKGPEWMGRLWNDGDTAYNSALKSRLSISRDTSKNQVFLKMNSLQTDDTGTYYCTTMNGYKDYWGQGVMVTVSS VL: TSYELIQPPSASVTLGNTVSLTCVGDELPKRYAYWYQQKPDQSIVRVIYEDSKRPSGISDRFSGSSSGTTATLTIRDAQAEDEADYYCHSTYSDDKLRIFGGGTKLTVLG	%	0

Enquiry: So what does the record say about Reactivity (%) for 3A4-A10-7 (antibody, V domains shown) VH: QVQLQQSGAALVKPGASVKMSCKASGYTFTDCWVSWVKQSHGKSLEWIGEIHPNSGTTNFNEKFKGKATLTVDKSTSTAYMELSRLTSEDSAIYYCTRAYGGYPFDYWGQGVMVTVSS VL: ADLVLTQPKSVSTSLESTVKLSCKLNSGNIGRYYMHWYQQHEGRSPTNMIYRDDKRPDGVPDRFSGSIDSSSNSAFLTINNVQTEDEAIYFCHSYDSSINIFGGGTKLTVLG ?
Return: 0.1
